system: PC-3; experiment: Cytotoxicity against human PC3 cells assessed as growth inhibition after 48 hrs by MTT assay; assay type: functional, cell-based; settings: PC-3, 48 h
Property Name: pIC50
Remember, pIC50 is on a log scale: it is -log10 of the molar concentration.

Some compounds with recorded pIC50:
[[record]]
compound = "C=CCc1ccc(O)c(O)c1 [HYDROXYCHAVICOL]"
property_name = "pIC50"
measured_result = 4.26

[[record]]
compound = "CCC(OC(C)=O)c1ccc(O)c(OC(C)=O)c1 (stereo unspecified)"
property_name = "pIC50"
measured_result = 4.32

[[record]]
compound = "CCC(OC(C)=O)c1ccc(OC(C)=O)c(OC(C)=O)c1 (stereo unspecified)"
property_name = "pIC50"
measured_result = 4.38

[[record]]
compound = "CC(=O)OCCCc1ccc(O)c(O)c1"
property_name = "pIC50"
measured_result = 4.08

[[record]]
compound = "CC(=O)OC/C=C/c1ccc(OCc2ccccc2)c(OC(C)=O)c1"
property_name = "pIC50"
measured_result = 4.42


**Q:** Quick one: pIC50 of CC(=O)OC/C=C/c1ccc(OCc2ccccc2)c(O)c1 ?
**A:** 5.46
